This collection of values is drawn from patent US20260001849A1.

target: hERG channel (Homo sapiens, UniProt Q12809); construct: host or cells: CHO cells; assay: hERG channel inhibitory activity, whole-cell patch clamp (auto-patch clamp system); type: cell-based; settings: read-out: hERG IC50
Sequence (Q12809 whole entry): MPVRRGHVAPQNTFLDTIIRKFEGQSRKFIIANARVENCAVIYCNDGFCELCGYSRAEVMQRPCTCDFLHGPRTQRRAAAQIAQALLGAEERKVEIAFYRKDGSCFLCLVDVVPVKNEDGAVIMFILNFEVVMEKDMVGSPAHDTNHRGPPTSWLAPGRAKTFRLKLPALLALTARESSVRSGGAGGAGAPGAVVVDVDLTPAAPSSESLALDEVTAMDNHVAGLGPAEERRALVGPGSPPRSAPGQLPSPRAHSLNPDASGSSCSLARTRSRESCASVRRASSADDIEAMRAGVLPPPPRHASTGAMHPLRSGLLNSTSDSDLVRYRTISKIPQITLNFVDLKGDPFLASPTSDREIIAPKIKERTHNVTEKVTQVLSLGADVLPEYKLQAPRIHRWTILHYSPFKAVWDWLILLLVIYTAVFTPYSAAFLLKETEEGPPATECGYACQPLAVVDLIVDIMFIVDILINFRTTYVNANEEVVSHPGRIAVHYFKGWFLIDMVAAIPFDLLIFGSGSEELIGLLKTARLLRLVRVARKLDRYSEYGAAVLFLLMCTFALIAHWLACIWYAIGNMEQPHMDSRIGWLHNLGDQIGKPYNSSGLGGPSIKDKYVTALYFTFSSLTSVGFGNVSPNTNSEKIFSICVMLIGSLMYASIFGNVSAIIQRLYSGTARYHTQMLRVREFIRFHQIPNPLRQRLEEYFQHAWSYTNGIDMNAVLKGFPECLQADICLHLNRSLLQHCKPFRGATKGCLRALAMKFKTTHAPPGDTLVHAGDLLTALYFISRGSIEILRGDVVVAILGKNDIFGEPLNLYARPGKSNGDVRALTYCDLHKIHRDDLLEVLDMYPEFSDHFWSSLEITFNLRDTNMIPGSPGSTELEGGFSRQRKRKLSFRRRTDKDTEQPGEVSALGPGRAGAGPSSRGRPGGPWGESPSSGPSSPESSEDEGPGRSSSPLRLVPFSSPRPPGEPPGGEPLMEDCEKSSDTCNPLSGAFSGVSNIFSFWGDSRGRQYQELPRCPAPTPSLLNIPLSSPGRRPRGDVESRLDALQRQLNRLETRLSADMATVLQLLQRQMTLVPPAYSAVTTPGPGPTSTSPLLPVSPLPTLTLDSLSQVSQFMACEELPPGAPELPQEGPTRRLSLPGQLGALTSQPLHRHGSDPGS
measurement-name: IC50

stdin: What does the record list as IC50 for O=C(O)Cc1ccc2c(c1)CCN(C(=O)CNC(=O)/C=C/c1ccc(Cl)cc1F)C2 ?
stdout: > 30 µM

stdin: What does the record list as IC50 for O=C(O)CCCN1CCN(C(=O)CNC(=O)/C=C/c2ccc(C(F)(F)F)cc2F)C(c2ccc(Cl)c(F)c2)C1 (stereo not drawn) [I-257] ?
stdout: 29.6 µM

stdin: What does the record list as IC50 for O=C(O)CCc1nn2c(c1Br)CN(C(=O)CNC(=O)/C=C/c1ccc(S(F)(F)(F)(F)F)cc1)CC2 ?
stdout: > 30 µM

###

biological target: Human BOAT1 (Homo sapiens); construct: expressed in transfected cells; assay: hBOAT1 inhibitory test (phenylalanine uptake); format: cell-based; conditions: Human BOAT1 stable expression CHO cells; [3H]-L-phenylalanine uptake, phenylalanine 0.25 mM; radioactivity after 100 to 200 min; read-out: hB0AT1 IC50
measurement-name: pIC50
// pIC50: -log10(molar conc.)

stdin: What does the record list as pIC50 for O=C(O)Cc1ccc2c(c1)CCN(C(=O)CNC(=O)/C=C/c1ccc(I)cc1F)C2 ?
stdout: 7.08

stdin: What does the record list as pIC50 for O=C(O)CCN1CCN(C(=O)CNC(=O)/C=C/c2ccc(C(F)(F)F)cc2F)C(c2ccccc2)C1 (stereo not shown) ?
stdout: 6.79

stdin: What does the record list as pIC50 for O=C(O)Cc1ccc2c(c1)CCN(C(=O)CNC(=O)/C=C/c1ccc(C(F)(F)F)cc1Cl)C2 ?
stdout: 6.94

stdin: What does the record list as pIC50 for O=C(O)Cc1ccc2c(c1)CCN(C(=O)CNC(=O)/C=C/c1ccc(I)cc1)C2 ?
stdout: 7.34

stdin: What does the record list as pIC50 for O=C(O)CSc1nc2c(s1)CN(C(=O)CNC(=O)/C=C/c1ccc(C(F)(F)F)cc1F)CC2 ?
stdout: 7.04

stdin: What does the record list as pIC50 for COC(=O)CCCN1CCN(C(=O)CNC(=O)/C=C/c2ccc(C(F)(F)F)cc2)C(c2ccccc2)C1 (stereo not shown) ?
stdout: 7.30

stdin: What does the record list as pIC50 for O=C(/C=C/c1ccc(C(F)(F)F)cc1F)NCC(=O)N1CCN(C[C@H]2C[C@@H](C(=O)O)C2)CC1c1ccc(Cl)cc1 (mixture of isomers) ?
stdout: 7.02

stdin: What does the record list as pIC50 for O=C(O)CCc1ccc2c(c1)CCN(C(=O)CNC(=O)/C=C/c1ccc(C(F)(F)F)cc1)C2 ?
stdout: 6.83

stdin: What does the record list as pIC50 for O=C(O)CCCc1ccc2c(c1)CCN(C(=O)CNC(=O)/C=C/c1ccc(C(F)(F)F)cc1)C2 ?
stdout: 6.62

stdin: What does the record list as pIC50 for COc1cc(CC(=O)OC(C)(C)C)cc2c1CN(C(=O)CNC(=O)/C=C/c1ccc(C(F)(F)F)cc1)CC2 ?
stdout: 6.15

stdin: What does the record list as pIC50 for O=C(O)Cc1cc2c(cc1Cl)CN(C(=O)CNC(=O)/C=C/c1ccc(C(F)(F)F)cc1F)CC2 ?
stdout: 7.15

stdin: What does the record list as pIC50 for Cc1cccc([C@H]2CN(CCCC(=O)O)[C@H](C)CN2C(=O)CNC(=O)/C=C/c2ccc(C(F)(F)F)cc2F)c1 ?
stdout: 7.15

stdin: What does the record list as pIC50 for O=C(O)CCc1cccc2c1CCN2C(=O)CNC(=O)/C=C/c1ccc(C(F)(F)F)cc1 ?
stdout: 7.36

stdin: What does the record list as pIC50 for CC(F)(F)c1ccc(/C=C/C(=O)NCC(=O)N2CCc3cc(CC(=O)O)ccc3C2)cc1 ?
stdout: 6.58

stdin: What does the record list as pIC50 for O=C(O)Cc1ccc2c(c1)CN(C(=O)CNC(=O)/C=C/c1ccc(C(F)(F)F)cc1)C2 ?
stdout: 6.62

stdin: What does the record list as pIC50 for O=C(O)Cc1cc(Cl)c2c(c1)CCN(C(=O)CNC(=O)/C=C/c1ccc(I)cc1)C2 ?
stdout: 7.08

stdin: What does the record list as pIC50 for O=C(O)CCCN1CCN(C(=O)CNC(=O)/C=C/c2ccc(C(F)(F)F)cc2F)C(c2ccc(F)cc2)C1 (stereo not shown) ?
stdout: 6.70

stdin: What does the record list as pIC50 for O=C(/C=C/c1ccc(C(F)(F)F)cc1)NCC(=O)N1CCc2cc(N3CCC(C(=O)O)C3)ccc2C1 (stereo not shown) ?
stdout: 6.81

stdin: What does the record list as pIC50 for O=C(O)CCCCc1ccc2c(c1)CCN(C(=O)CNC(=O)/C=C/c1ccc(C(F)(F)F)cc1)C2 ?
stdout: 6.34

stdin: What does the record list as pIC50 for COC(=O)Cn1nc(C)c2c1CCN(C(=O)CNC(=O)/C=C/c1ccc(C(F)(F)F)cc1)C2 ?
stdout: 7.05

stdin: What does the record list as pIC50 for O=C(O)Cc1ccc2c(c1F)CCN(C(=O)CNC(=O)/C=C/c1ccc(C(F)(F)F)cc1)C2 ?
stdout: 6.85

stdin: What does the record list as pIC50 for O=C(O)CCc1cc2c(s1)CN(C(=O)CNC(=O)/C=C/c1ccc(C(F)(F)F)cc1)CC2 ?
stdout: 7.00

stdin: What does the record list as pIC50 for O=C(O)CCCCN1CCN(C(=O)CNC(=O)/C=C/c2ccc(C(F)(F)F)cc2F)C(c2ccccc2)C1 (stereo not shown) ?
stdout: 6.80

stdin: What does the record list as pIC50 for O=C(O)CCc1cnn2c1CN(C(=O)CNC(=O)/C=C/c1ccc(C(F)(F)F)cc1)CC2 ?
stdout: 6.34

stdin: What does the record list as pIC50 for N#Cc1c(CC(=O)O)ccc2c1CCN(C(=O)CNC(=O)/C=C/c1ccc(C(F)(F)F)cc1)C2 ?
stdout: 6.74

###

target: Human BOAT1 (Homo sapiens, UniProt Q695T7); construct: expressed in transfected cells; assay: hBOAT1 inhibitory test (phenylalanine uptake); assay type: cell-based; details: Human BOAT1 stable expression CHO cells; phenylalanine uptake, phenylalanine 0.25 mM; read-out: hB0AT1 IC50
Sequence (Q695T7 whole entry): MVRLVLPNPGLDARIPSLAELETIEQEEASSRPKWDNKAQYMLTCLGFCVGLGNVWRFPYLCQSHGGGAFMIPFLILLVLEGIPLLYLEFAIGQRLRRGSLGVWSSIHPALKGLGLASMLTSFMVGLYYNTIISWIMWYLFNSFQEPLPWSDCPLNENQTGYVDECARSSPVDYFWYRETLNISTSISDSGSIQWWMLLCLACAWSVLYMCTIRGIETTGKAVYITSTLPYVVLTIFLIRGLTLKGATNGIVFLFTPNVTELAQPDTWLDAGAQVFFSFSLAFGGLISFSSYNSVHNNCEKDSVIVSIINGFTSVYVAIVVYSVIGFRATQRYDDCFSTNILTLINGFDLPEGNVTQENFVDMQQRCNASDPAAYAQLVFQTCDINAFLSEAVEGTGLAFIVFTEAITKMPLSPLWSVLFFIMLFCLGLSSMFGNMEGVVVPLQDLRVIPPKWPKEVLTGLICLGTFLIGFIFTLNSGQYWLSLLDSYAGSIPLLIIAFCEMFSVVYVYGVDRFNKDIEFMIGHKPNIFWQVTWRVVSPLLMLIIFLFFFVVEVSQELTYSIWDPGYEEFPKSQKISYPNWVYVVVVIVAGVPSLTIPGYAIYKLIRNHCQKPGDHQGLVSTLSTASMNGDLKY
Give IC50 for every item shown.
Reply with just the number (in nM).

stdin: Kindly state the measured IC50 obtained for NC(=O)Cc1cc(F)c2c(c1)CCN(C(=O)CNC(=O)/C=C/c1ccc(C(F)(F)F)cc1)C2 [I-276] with Human BOAT1 (Homo sapiens, UniProt Q695T7).
stdout: 17

stdin: Kindly state the measured IC50 obtained for O=C(O)CCCN1CCN(C(=O)CNC(=O)/C=C/c2ccc(C(F)(F)F)cc2F)C(c2ccccc2)C1 (single isomer, unassigned) [I-290] with Human BOAT1 (Homo sapiens, UniProt Q695T7).
stdout: 119

stdin: Kindly state the measured IC50 obtained for [2H]C([2H])([2H])[C@@H]1CN(C(=O)CNC(=O)/C=C/c2ccc(C(F)(F)F)cc2F)[C@@H](c2ccccc2)CN1CCCC(=O)O [I-397] with Human BOAT1 (Homo sapiens, UniProt Q695T7).
stdout: 75

stdin: Kindly state the measured IC50 obtained for O=C(/C=C/c1ccc(C(F)(F)F)cc1F)NCC(=O)N1CCCC(c2cccc(C(=O)O)c2)C1 (centres unmarked) [I-255] with Human BOAT1 (Homo sapiens, UniProt Q695T7).
stdout: 766

stdin: Kindly state the measured IC50 obtained for O=C(O)CCCN1CCN(C(=O)CNC(=O)/C=C/c2ccc(C(F)(F)F)cc2F)C(c2ccc(Cl)cc2)C1 (single isomer, unassigned) [I-294] with Human BOAT1 (Homo sapiens, UniProt Q695T7).
stdout: 266

stdin: Kindly state the measured IC50 obtained for C[C@@H]1CN(C(=O)CNC(=O)/C=C/c2ccc(C(F)(F)F)cc2F)[C@@H](c2ccc(F)c(F)c2)CN1CCCC(=O)O [I-349] with Human BOAT1 (Homo sapiens, UniProt Q695T7).
stdout: 93

stdin: Kindly state the measured IC50 obtained for O=C(O)CCCN1CCN(C(=O)CNC(=O)/C=C/c2ccc(C(F)(F)F)cc2F)C(c2cccc(Br)c2)C1 (single isomer, unassigned) [I-293] with Human BOAT1 (Homo sapiens, UniProt Q695T7).
stdout: 39

stdin: Kindly state the measured IC50 obtained for CN(C)C(=O)CCc1cnn2c1CN(C(=O)CNC(=O)/C=C/c1ccc(C(F)(F)F)cc1)CC2 [I-275] with Human BOAT1 (Homo sapiens, UniProt Q695T7).
stdout: 78

stdin: Kindly state the measured IC50 obtained for C[C@@H]1CN(C(=O)CNC(=O)/C=C/c2ccc(C(F)(F)F)cc2F)[C@@H](c2ccccc2)CN1CC(C)(C)C(=O)O [I-346] with Human BOAT1 (Homo sapiens, UniProt Q695T7).
stdout: 1040

stdin: Kindly state the measured IC50 obtained for CC(C)[C@@H]1CN(C(=O)CNC(=O)/C=C/c2ccc(C(F)(F)F)cc2F)[C@@H](c2ccccc2)CN1CCCC(=O)O [I-342] with Human BOAT1 (Homo sapiens, UniProt Q695T7).
stdout: 338

stdin: Kindly state the measured IC50 obtained for C[C@@H]1CN(C(=O)CNC(=O)/C=C/c2ccc(C(F)(F)F)cc2F)[C@@H](c2ccc3ccccc3c2)CN1CCCC(=O)O [I-398] with Human BOAT1 (Homo sapiens, UniProt Q695T7).
stdout: 42

stdin: Kindly state the measured IC50 obtained for C[C@@H]1CN(C(=O)CNC(=O)/C=C/c2ccc(C(F)(F)F)cc2F)[C@@H](c2ccccc2)CN1CCC(C)(C)C(=O)O [I-344] with Human BOAT1 (Homo sapiens, UniProt Q695T7).
stdout: 122

stdin: Kindly state the measured IC50 obtained for O=C(/C=C/c1ccc(C(F)(F)F)cc1F)NCC(=O)N1CCCC(N2CC[C@H](C(=O)O)C2)C1 (some centres unmarked) [I-360] with Human BOAT1 (Homo sapiens, UniProt Q695T7).
stdout: 2860

stdin: Kindly state the measured IC50 obtained for O=C(O)CCCN1CCN(C(=O)CNC(=O)/C=C/c2ccc(C(F)(F)F)cc2F)C(c2cccc(C(F)(F)F)c2)C1 (centres unmarked) [I-262] with Human BOAT1 (Homo sapiens, UniProt Q695T7).
stdout: 125

stdin: Kindly state the measured IC50 obtained for O=C(O)C[C@@H]1CCN(C2CCCN(C(=O)CNC(=O)/C=C/c3ccc(C(F)(F)F)cc3F)C2)C1 (some centres unmarked) [I-362] with Human BOAT1 (Homo sapiens, UniProt Q695T7).
stdout: 1400

stdin: Kindly state the measured IC50 obtained for O=C(O)CCCN1CCN(C(=O)CNC(=O)/C=C/c2ccc(C(F)(F)F)cc2F)C(c2cccc(Br)c2)C1 (single isomer, unassigned) [I-292] with Human BOAT1 (Homo sapiens, UniProt Q695T7).
stdout: 1200

stdin: Kindly state the measured IC50 obtained for C[C@@H]1CN(C(=O)CNC(=O)/C=C/c2ccc(C(F)(F)F)cc2F)[C@@H](c2ccc(F)c(F)c2)CN1CCC(=O)O [I-348] with Human BOAT1 (Homo sapiens, UniProt Q695T7).
stdout: 45

stdin: Kindly state the measured IC50 obtained for C[C@@H]1CN(C(=O)CNC(=O)/C=C/c2ccc(C(F)(F)F)cc2F)[C@@H](c2ccccc2)CN1CCCC(=O)O [I-261] with Human BOAT1 (Homo sapiens, UniProt Q695T7).
stdout: 30

stdin: Kindly state the measured IC50 obtained for C[C@@H]1CN(C(=O)CNC(=O)/C=C/c2ccc(C(F)(F)F)cc2F)[C@@H](c2ccc(Cl)cc2)CN1CCCC(=O)O [I-337] with Human BOAT1 (Homo sapiens, UniProt Q695T7).
stdout: 31

stdin: Kindly state the measured IC50 obtained for C[C@@H]1CN(C(=O)CNC(=O)/C=C/c2ccc(C(F)(F)F)cc2F)[C@@H](c2cccnc2)CN1CCCC(=O)O [I-395] with Human BOAT1 (Homo sapiens, UniProt Q695T7).
stdout: 636

stdin: Kindly state the measured IC50 obtained for CC[C@@H]1CN(C(=O)CNC(=O)/C=C/c2ccc(C(F)(F)F)cc2F)[C@@H](c2ccccc2)CN1CCCC(=O)O [I-343] with Human BOAT1 (Homo sapiens, UniProt Q695T7).
stdout: 91

stdin: Kindly state the measured IC50 obtained for CNC(=O)Cc1nc2c(s1)CN(C(=O)CNC(=O)/C=C/c1ccc(C(F)(F)F)cc1F)CC2 [I-284] with Human BOAT1 (Homo sapiens, UniProt Q695T7).
stdout: 25

stdin: Kindly state the measured IC50 obtained for C[C@@H]1CN(C(=O)CNC(=O)/C=C/c2ccc(C(F)(F)F)cc2F)[C@@H](c2ccc(Cl)s2)CN1CCC(=O)O [I-396] with Human BOAT1 (Homo sapiens, UniProt Q695T7).
stdout: 71
